Target: smHDAC8 (Schistosoma mansoni)
Construct: made in house; host or cells: E. coli
Sequence (A5H660 1-440): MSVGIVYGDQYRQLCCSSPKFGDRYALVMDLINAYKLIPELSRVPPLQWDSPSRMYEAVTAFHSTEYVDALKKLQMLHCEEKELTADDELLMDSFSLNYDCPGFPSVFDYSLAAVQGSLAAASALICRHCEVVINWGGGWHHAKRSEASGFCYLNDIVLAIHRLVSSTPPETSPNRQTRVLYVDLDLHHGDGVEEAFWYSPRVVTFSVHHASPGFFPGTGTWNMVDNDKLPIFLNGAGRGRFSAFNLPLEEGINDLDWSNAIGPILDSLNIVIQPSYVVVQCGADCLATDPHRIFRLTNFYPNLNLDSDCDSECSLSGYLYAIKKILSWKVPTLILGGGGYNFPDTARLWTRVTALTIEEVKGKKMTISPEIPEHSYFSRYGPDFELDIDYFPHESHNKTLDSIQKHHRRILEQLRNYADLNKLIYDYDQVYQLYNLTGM
Assay: biochemical
Type: biochemical
Conditions: @ 10 μM; pretest n=1; read-out: smHDAC8 (% inhibition, Fluor de Lys)
Tick MET if inhibition at 10 µM is 50% or greater. Tick NOT MET if inhibition at 10 µM is less than 50%.

A selection of reference data follows.
INSERT INTO measurements (molecule, systemundertest, class) VALUES
  ('O=C(CCCCCCC(=O)Nc1ccccc1)NO [SAHA (1), SAHA, reference compound]', 'smHDAC8 (Schistosoma mansoni)', 'MET'),
  ('O=C(NO)c1cn(-c2ccc(C#CC#Cc3ccccc3)cc2)nn1 [Compound 2 j]', 'smHDAC8 (Schistosoma mansoni)', 'NOT MET'),
  ('O=C(NO)c1cn(Cc2ccccc2)nn1 [Compound 2 c]', 'smHDAC8 (Schistosoma mansoni)', 'NOT MET'),
  ('O=C(NO)c1cn(Cc2ccc(C(F)(F)F)cc2)nn1 [Compound 2 e]', 'smHDAC8 (Schistosoma mansoni)', 'MET');

[in] Has O=C(NO)c1cn(Cc2ccc(F)cc2)nn1 [Compound 2 d] a recorded inhibition at 10 µM greater than or equal to 50%?
[out] NOT MET

[in] Same thing, different molecule: Cl.O=C(NO)c1cn(-c2ccc(C#Cc3ccc(CN4CCOCC4)cc3)cc2)nn1 [Compound 2 i]
[out] NOT MET

[in] Same thing, different molecule: O=C(NO)c1cn(-c2ccccc2)nn1 [Compound 2 b]
[out] MET
